# System: BT-474
# PROCEDURE_TEXT: Antiproliferative activity against human BT474 cells after 72 hrs by CellTiter-Glo assay
# Assay type: functional, cell-based
# STATED_CONDITIONS: BT-474, 72 h
What pIC50 was measured for each of the following?
Answers are plain numbers, as −log10 of the molar value.

Please review the entries below; each comes with its answer.
{"columns": ["SMILES_DATA", "pIC50"],
 "data": [
  ["CCCCCCCCCCCCCCCCCC(=O)N[C@@H](CCCNC(=N)N)C(=O)N[C@@H](CC(=O)N[C@@H](CCCCN)C(=O)O)c1cccc2ccccc12", 5.92],
  ["CCCCCCCCCCCCCCCC(=O)N[C@@H](CCCNC(=N)N)C(=O)N[C@@H](CC(=O)N[C@@H](Cc1ccccc1)C(=O)O)c1cccc2ccccc12", 5.85],
  ["CCCCCCCCCCCCCCCC(=O)N[C@@H](CCCNC(=N)N)C(=O)N[C@@H](CC(=O)N[C@@H](CCCCN)C(=O)O)c1cccc2ccccc12", 5.85]
]}

Shift focus to the following entry.
Query string: Which pIC50 reading was recorded for the compound CCCCCCCCCCCCCCCCCC(=O)N[C@@H](CCCNC(=N)N)C(=O)N[C@@H](CC(=O)N[C@@H](Cc1ccccc1)C(=O)O)c1cccc2ccccc12 ?
Result string: 6.00
